Test: protein stability index of a GFP-peptide fusion (GPS, HEK-293T) (PSI 1-6); higher = more stable;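 note: 24-mer peptide tiles fused after GFP, lentivirally expressed, FACS-sorted into six equal bins by GFP/DsRed ratio, decoded by Illumina sequencing, PSI is the read-weighted mean bin number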
Details: treatment: MLN4924 1 uM, 8 h; c terminus: a fixed tail appended
Quick reference: protein stability index of the listed items.
Reply with the value as a number alone.

QYLEEERHMREENLRLQRKLQREM [CCDC6]; 4.16
FKHPSIRNPVSLVVTRLVILGSGE [ADAMTS4]; 3.03
YYLRKGKKINSNQLENEQSQENSI [SPANXN3]; 4.23
AVNNGDFEAYAKICDPGLTSFEPE [CAMK2B]; 4.38

// lookup protein stability index for HPWKWSNGKEFNNWFNVTGSDKCV [CD69]
2.46

Data request, read-out protein stability index, for TFPDLESEFQAALSRKVAKLVHFL [MAGEA6]
2.22

I would be grateful if you could share the reported protein stability index for PPLSDPKQAKVVARRESGGRPIKP [BRD3] .
5.12

* * *

Experiment: protein stability index of a GFP-peptide fusion (GPS, HEK-293T) (PSI 1-6); higher = more stable
Details: treatment: MLN4924 1 uM, 8 h; c terminus: a fixed tail appended
Overview of recorded protein stability index for various sequences
Hey, just send me the number, nothing else.

Please review the following examples before continuing.
SFVTGSHVGELIIWDALDWTMQAY [WDR41]; 3.21
IGLDNGTISEFILSEDYNKMTPVK [WDFY2]; 3.16
TKKKQWCYNCEEEAMYHCCWNTSY [ZMYND11]; 2.45

What measured protein stability index goes with ESAQATFQAHRDKYEKLRGDVAIK [ARFIP2] ?
4.62

Consider the sequence shown here: YSLTTSSTHKSSLCKVEIVCPPQS [RAB40A] What is its recorded protein stability index?
2.64

* * *

Below: a set of entries, each annotated with reported protein stability index.
Assay: protein stability index of a GFP-peptide fusion (GPS, HEK-293T) (PSI 1-6); higher = more stable
Settings: treatment: MLN4924 1 uM, 8 h; c terminus: a fixed tail appended
Answer with the value's number alone.

Look over these answered cases.
SPYFHDQVLLKGMTSISLPSVMDP [ZBTB22]; 3.12
PAWGHCFYRLYQDLETHRLPCTSR [SCNN1D]; 2.62
AEIPDGPPVVAHYDMSDTNSDPEV [C18orf25]; 5.48
EVVPALEPTETLLSEKEINAREES [BCL2L13]; 5.58
QEVLSLRRENSTLDVECHEKEKHV [SASS6]; 5.52
FQEDVPMSTEEQYRIRQVNIYYYL [EFHC1]; 2.22

// below: protein stability index requested for another sequence
Form field: reported protein stability index of DNAIMLFSPDFTLRNTLKSTSEDS [FAN1]
4.2

* * *

Assay: protein stability index of a GFP-peptide fusion (GPS, HEK-293T) (PSI 1-6); higher = more stable
Conditions: treatment: MLN4924 1 uM, 8 h; c terminus: a fixed tail appended
Measured Quantity: protein stability index
The answer should be a number; do not append a unit.

Quick one: protein stability index for DTSGFPDLSDNRNEDPLVLLAWRC [FBXO33] ?
3

* * *

Assay: protein stability index of a GFP-peptide fusion (GPS, HEK-293T) (PSI 1-6); higher = more stable
Conditions: treatment: MLN4924 1 uM, 8 h; c terminus: a fixed tail appended
Use protein stability index to assign classes; range list: lower segment = under 3, middle segment = from 3 up to 4, upper segment = 4 and over

Illustrative cases are given below, each with its answer.
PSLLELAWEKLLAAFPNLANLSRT [KLHDC10]; lower segment
NGDGAFLHDNHEQMPTEIEFPESR [ZNF649]; upper segment
QTKQVYDAVGMLGIEEVTYENCLQ [NLN]; middle segment
YMLFDPKDSVMQQNLVYYRFHRAR [P3H4]; lower segment
PSNARGPILSRSTSTGSAASSGSN [SPRY1]; upper segment
LGLTQNPEGQKVLFVTFLLIYMVT [OR4A15]; middle segment
YECGVCAKKFMWRDSFMRHRGHCE [ZBTB22]; upper segment
FLTVGSVLQMWHIVDKCTELLREG [ZBTB22]; middle segment

Each sequence maps to one class by protein stability index. Which class for WMKHNVADSQITTIGNLVPQKTYS [PTPRD] ?
middle segment

Each sequence maps to one class by protein stability index. Which class for PPVVAHYDMSDTNSDPEVVNVDNL [C18orf25] ?
upper segment

Using the reported protein stability index, which band applies to QGKDWGFKKFIRRDFLLDEANGLL [SPOPL] ?
lower segment
